- TARGET_OR_TEST_SYSTEM: Mannose-6-phosphate isomerase (Homo sapiens) (UniProt P34949)
- Sequence (P34949 whole entry, looked up): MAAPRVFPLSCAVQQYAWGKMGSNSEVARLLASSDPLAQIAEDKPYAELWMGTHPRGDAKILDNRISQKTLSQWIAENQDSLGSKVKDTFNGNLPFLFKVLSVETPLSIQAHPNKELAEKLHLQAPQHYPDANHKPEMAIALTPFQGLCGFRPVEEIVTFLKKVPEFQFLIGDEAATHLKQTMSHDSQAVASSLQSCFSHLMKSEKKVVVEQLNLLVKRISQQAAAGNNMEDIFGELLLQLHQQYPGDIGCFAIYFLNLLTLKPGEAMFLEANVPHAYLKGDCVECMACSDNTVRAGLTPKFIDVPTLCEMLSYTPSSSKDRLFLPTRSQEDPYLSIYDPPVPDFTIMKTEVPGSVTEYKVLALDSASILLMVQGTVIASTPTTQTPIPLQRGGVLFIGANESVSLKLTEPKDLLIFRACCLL
- ASSAY_COMMENT: MPI inhibition at elevated mannose 6-phosphate – biochemical, fluorescence intensity, high mannose 6-phosphate, primary screen (AID 1220)
- CONDITION_NOTES: recombinant PMI enzyme, coupled fluorescence intensity; at 20 µM
Hit rate of the full screen: of about 190,000 compounds, about 1,300 (0.68%) were called active. Rule as the data show it: active = inhibition above about 50%; inactive = the rest. Shown is part of a subset that was picked to be rich in actives.
Classes to choose from: y for active, n for inactive

Fill in: this test's call for O=C(Nc1ccccc1N1CCOCC1)C1Cc2ccccc2CN1C(=O)c1ccco1 (stereo not drawn) is ___ n

Fill in: this test's call for CCN(CCO)C1CC(=O)N(c2ccccc2C)C1=O (stereo not drawn) is ___ n

Fill in: this test's call for COC(=O)c1ccc(OC(=O)c2ccco2)cc1 is ___ n

Fill in: this test's call for CCOC(=O)C1(Cc2ccc(Cl)cc2)CCN(CCCn2cccn2)CC1 is ___ n

Fill in: this test's call for Cc1ccc(NCCC(=O)c2cccs2)cc1Cl is ___ n

Fill in: this test's call for CCOc1ccccc1NC(=O)C1CCN(S(=O)(=O)c2c(C)noc2C)CC1 is ___ n

Fill in: this test's call for O=C(CCNc1cc(Cl)cc(Cl)c1)c1cccs1 is ___ n

Fill in: this test's call for O=C(NCc1ccccc1)Nc1cccn(Cc2c(F)cccc2Cl)c1=O is ___ y

Fill in: this test's call for O=C(c1cc(C(=O)c2ccco2)cc(C(=O)c2ccco2)c1)c1ccco1 is ___ n

Fill in: this test's call for COc1ccc(CCC(=O)N2c3ccccc3CC2C)cc1 (stereo not drawn) is ___ n

Fill in: this test's call for CCOc1ccccc1NS(=O)(=O)c1c(C)noc1C is ___ y

Fill in: this test's call for O=C(c1ccco1)c1coc2c1cc(O)c1ccccc12 is ___ y

Fill in: this test's call for O=C(O)C1CCC(Cn2c(SCc3cc(=O)n4cc(Br)ccc4n3)nc3ccsc3c2=O)CC1 (stereo not drawn) is ___ n

Fill in: this test's call for Cn1c(=O)[nH]c(=O)c2c1nc(N1CCOCC1)n2CC(O)COc1ccc2ccccc2c1 (stereo not drawn) is ___ n

Fill in: this test's call for CCOC(=O)c1cc2c(C)n(-c3ccc(N(C)C)cc3)c(C)c2cc(C(=O)OCC)c1=O is ___ n

Fill in: this test's call for CC(=O)c1coc2c1cc(O)c1ccccc12 is ___ n

Fill in: this test's call for Cc1ccc(NC(=O)Nc2cccn(Cc3c(F)cccc3Cl)c2=O)cc1 is ___ y

Fill in: this test's call for Cc1cnc(C(=O)N2CCCC(C(=O)c3ccc(C(C)(C)C)cc3)C2)cn1 (stereo not drawn) is ___ n

Fill in: this test's call for Cc1ccc2n(n1)c(=O)c(Cc1ccccc1)c([O-])[n+]2-c1ccccc1 is ___ n

Fill in: this test's call for CC(=O)Nc1cccn(Cc2c(Cl)cccc2Cl)c1=O is ___ n

Fill in: this test's call for CCOc1ccccc1NS(=O)(=O)c1cn(C)nc1C is ___ n

Fill in: this test's call for CCOC(=O)Cc1csc(NC(=O)CSc2nnc(Cc3csc(N)n3)n2C)n1 is ___ n

Fill in: this test's call for COc1ccccc1NC(=O)CC1S/C(=N/N=C2\CCCc3ccccc32)NC1=O (stereo not drawn) is ___ n
